The measurements presented in this section are drawn from PubChem BioAssay.

- assayComment: COS7 lysate on small-molecule microarray, probe aHis, 635 nm (AID 1123);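 also: z-score combines 667nm fluorescence intensity with signal-to-noise per printed compound spot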
- experimentalConditions: COS7 cell lysate, fluorescence, higher = more signal
Record form. Attribute: composite z-score. Fill in for each entry.
Could you respond with only the numeric value?

response.value for `COC(=O)c1c(CC[C@@H](CO)NC(=O)N2CCC[C@H]2Cn2cc(Cc3ccccc3)nn2)oc(C(C)=O)c1C(=O)OC` (field: composite z-score) = 1.33

Entry `COCCCNC(=O)[C@@]1(Cc2ccccc2N=[N+]=[N-])N=C(c2ccc(OCCCO)cc2)O[C@H]1c1ccccc1` — recorded composite z-score = 1.99

Record `COC(=O)[C@@]1(Cc2ccc(OC)cc2)[C@H]2c3cc(C(=O)N(C)C)n(C[C@H](O)CO)c3C[C@H]2CN1C(=O)c1ccccc1` . Reported composite z-score: 2.24

The reported composite z-score of the compound `CC(C)N1C(=O)c2ccccc2[C@@H](C(=O)NC2CC2)[C@@H]1c1ccc(CO)cc1` was 0.467

`Cc1ccc(S[C@]2(C(=O)O)CC(=O)N(C3Cc4ccccc4C3)[C@@H]2c2ccc(CO)cc2)cc1` yielded composite z-score of 2.65

composite z-score reported for this compound `CCCNC(=O)[C@@]1(c2ccc([N+](=O)[O-])cc2)CC(=O)N(C2CCCCC2)[C@@H]1c1ccc(CO)cc1` : 2.01

// field: composite z-score; key: `COc1ccc([Si](C)(C)[C@@H]2[C@@H](CC(=O)N(CCO)Cc3ccccc3)O[C@]3(C(=O)N(Cc4cccc(N5C(=O)c6cccc7cccc5c67)c4)c4ccccc43)[C@H]2C)cc1` ; value = 0.135

====

Exercise: state measured composite z-score for each of the compounds provided.
- assayTarget: Torsin-1A (Homo sapiens) (UniProt O14656)
- Sequence (O14656 whole entry, looked up): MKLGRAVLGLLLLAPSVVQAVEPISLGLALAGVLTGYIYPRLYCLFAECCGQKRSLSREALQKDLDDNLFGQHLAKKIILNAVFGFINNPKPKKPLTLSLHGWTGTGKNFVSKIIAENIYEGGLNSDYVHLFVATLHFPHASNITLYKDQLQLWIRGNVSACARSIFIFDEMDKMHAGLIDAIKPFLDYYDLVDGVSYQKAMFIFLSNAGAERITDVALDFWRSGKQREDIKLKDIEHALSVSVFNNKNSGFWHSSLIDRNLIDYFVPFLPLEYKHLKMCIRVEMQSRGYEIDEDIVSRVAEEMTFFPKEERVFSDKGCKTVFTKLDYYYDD
- assayComment: small-molecule binders of mutant TOR1A in lysate, primary screen, cell lysate, small-molecule microarray, COS7 lysate, 635/667 nm fluorescence (AID 1150);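 also: score pools 667 nm emission and signal to noise measuring lysate protein binding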
- experimentalConditions: COS7 hTOR1A mutant lysate, 635 nm fluorescence, higher = more signal
Answer using only a numeral; do not append any unit.

Note to self: composite z-score recorded for `CCOC(=O)C1=CC[C@@H](c2ccccc2C(F)(F)F)N(S(=O)(=O)c2ccc(C)cc2)[C@H]1c1ccc(C#N)cc1` was 0.512

# composite z-score (compound: CCOc1cc(C(O)C2C=CC3C(=O)N(C)C(=O)C3N2Nc2ccccc2)ccc1O (configuration not stated) ) is 0.467

For reference, reported composite z-score for `COC(=O)c1nc2oc1CC[C@@H](CO)NC(=O)N(C)Cc1cnnn1C[C@H](Cc1ccccc1)NC2=O` stands at -0.533

Memo: `COCCOC(=O)N1C(=O)[C@@]2(c3cc(C#CCNC(N)=O)ccc31)[C@H](C(=O)N1CCc3cc(OC)c(OC)cc3C1)[C@H]1C(=O)O[C@H](c3ccccc3)[C@H](c3ccccc3)N1[C@@H]2c1ccccc1OCCO` , reported composite z-score: 0.498

# composite z-score of CC(C)C(CO)N1C(=O)[C@@H]2C3C(=O)OCCC/C=C\[C@H]3OC23C=CCN(C(C)(C)C)C(=O)[C@@H]13 (some centres not stated) = 0.3

Lookup result for CC(c1ccccc1)C(O)C1C=CC2C(=O)N(c3ccccc3)C(=O)C2N1Nc1ccc([N+](=O)[O-])cc1 (configuration not stated) ; measured composite z-score: 0.29

Reported composite z-score for `COC(=O)[C@@]1(Cc2ccccc2)[C@H]2c3cc(C(=O)N(C)C)n(CCN4CNCC4=O)c3C[C@H]2CN1C(=O)c1ccccc1` was 4.06

====

- assayComment: CREB reporter modulators under forskolin, primary screen, cell-based, PC12, CRE-LacZ reporter, forskolin-stimulated (AID 1146);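 also: PC12 cells with 6xCRE LacZ reporter stimulated by forskolin 10 µM; beta-galactosidase reporter signal reflecting CREB driven transcription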
- experimentalConditions: luminescence, 4.5 h, higher = more signal, called active from +8 up or from −8 down
Classify as follows. Reported z-score greater than or equal to -0.3: criterion met. Reported z-score below: criterion not met.

Exam item: decide whether the reported z-score for O=C1OCC=C[C@H]2OC34C=CCN(c5ccc(Cl)cc5)C(=O)[C@H]3N(CCO)C(=O)[C@@H]4[C@@H]12 (some centres not stated) is at least -0.3.
criterion not met

Decide: is the reported value of z-score for C=CC1c2cc(O)c(OC)cc2CCN1Cc1cc2c(cc1Br)OCO2 (configuration not stated) equal to or greater than -0.3?
criterion met

Could you please find out whether `O=C(NCC(F)(F)F)[C@@H]1c2ccccc2C(=O)N(Cc2ccccc2C(F)(F)F)[C@H]1c1ccc(CO)cc1` has z-score that meets -0.3 or exceeds it?
criterion met

Hi team, for `CCCCC=C[C@@H](NC(=O)c1ccc(-c2ccccc2)cc1)c1ccccc1` , is the recorded z-score at or above -0.3?
criterion met

Tell me whether z-score is at least -0.3 here: `COC(=O)C(CC#Cc1ccc2c(c1)[C@]1(C(=O)N2)[C@H](C(=O)N2CCN(c3ncccn3)CC2)[C@H]2C(=O)O[C@H](c3ccccc3)[C@H](c3ccccc3)N2[C@@H]1c1ccc(OCCO)cc1)C(=O)OC`
criterion not met

Evaluate `COC(=O)[C@@]1(Cc2ccc(OC)cc2)[C@H]2c3cc(C(=O)N(C)C)n(C[C@H](O)CO)c3C[C@H]2CN1C(=O)c1ccccc1` : z-score at minimum -0.3?
criterion met

====

- assayComment: MM1S cell viability effects, profiling panel, calcein-AM fluorescence, 48 h, basal (AID 1165);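 also: viability of MM1S multiple myeloma cells under basal unstimulated conditions; test concentration not given here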
- experimentalConditions: higher = more signal
I'd be grateful if you could share measured z-score for these entries.

// `COCCOC(=O)N1C(=O)[C@@]2(c3cc(C#Cc4ccc(OC)cc4)ccc31)[C@H](C(=O)Nc1nc3ccccc3s1)[C@H]1C(=O)O[C@H](c3ccccc3)[C@H](c3ccccc3)N1[C@@H]2c1ccc(O)cc1` : z-score value = -1.18

Value of z-score reported for the compound `O=C1N(Cc2ccccc2)c2ccccc2[C@@H]2OC(c3ccc(OCCCO)cc3)=N[C@]12Cc1ccccc1` is -3.26

get_value(item= CC(c1ccccc1)C(O)C1C=CC2C(=O)N(c3ccccc3)C(=O)C2N1Nc1ccc([N+](=O)[O-])cc1 (stereo not given) , readout=z-score) returns 0.48

Summary for this compound, C=CCC(OC(C)=O)[C@@H]1[C@@H](N(Cc2cc3ccccc3o2)C(=O)Cc2ccc(F)cc2)c2cc(OCCCO)ccc2N1C(=O)c1ccc2ccccc2c1 (stereo not given in full) : z-score is -0.915

Consider COc1cc(OC)c(C(O)C2C=CC3C(=O)N(c4ccccc4)C(=O)C3N2Nc2ccccc2)cc1Br (stereo not given) . Its measured z-score is 0.251

Measured z-score of `COC(=O)Cn1c(C(=O)N(C)C)cc2c1C[C@H]1CN(C(=O)c3ccccc3)[C@@](Cc3ccc(F)cc3)(C(=O)OC)[C@@H]21` : -1.38

For reference, reported z-score for `CO[C@]12C=C(Br)[C@@H](C[C@@H]1c1cccc(C)c1)[C@@]1(CO1)C2=O` stands at -2.16

Summary for this compound, `C=C(/C(=C/C[C@H](OC(C)=O)c1ccccc1OCCO)c1cc(C(=O)OC)ccc1OC)C(C)C` : z-score is -1.2

Query O=C1C2C=CC(C(O)c3ccc(F)cc3)N(n3cnnc3)C2C(=O)N1Cc1ccccc1 (stereo not given) yields z-score of -0.0875

Lab note: measured z-score of `NC(=O)NCC#Cc1ccc2c(c1)[C@]1(C(=O)N2)[C@H](C(=O)NC[C@H](O)c2ccccc2)[C@H]2C(=O)O[C@H](c3ccccc3)[C@H](c3ccccc3)N2[C@@H]1c1ccc(OCCO)cc1` was -0.254

According to the records, this compound `COC(=O)[C@@]1(Cc2ccccc2)[C@H]2c3cc(C(=O)N(C)C)n(CCc4ccc(O)c(OC)c4)c3C[C@H]2CN1C(=O)c1ccccc1` displays z-score of -1.32

Value of z-score reported for the compound `CCOC(=O)C[C@H]1[C@H](OC(=O)c2cc3ccccc3oc2=O)[C@@H](NC(=O)Cc2ccc(OC)cc2)c2cc(OCCCO)ccc2N1C(=O)c1ccc2ccccc2n1` is -0.171

Record `O=C(CS)NCCCCCCNC(=O)[C@H]1C[C@H]2C(=O)N[C@@H](Cc3ccccc3)C(=O)N2[C@H]1c1ccc(O)cc1` . Reported z-score: -1.51

Quick note, z-score for `CCOC(=O)C[C@H]1[C@H](OC(=O)c2cc3ccccc3oc2=O)[C@@H](NC(=O)c2ccc(-c3ccccc3)cc2)c2cc(OCCCO)ccc2N1C(=O)c1ccc2ccccc2n1` landed at 0.0181

Recorded result, C=CCC(OC(C)=O)[C@@H]1[C@@H](N(Cc2ccc(-c3cccc(C(F)(F)F)c3)o2)C(=O)c2ccc(-c3ccccc3)cc2)c2cc(OCCCO)ccc2N1C(=O)c1ccc2ccccc2n1 (stereo not given in full) , z-score: 0.0887

Lab note: `CC(C)C(=C=CC[C@H](O)c1ccc(OCCO)cc1)C[C@H](O)c1ccccn1` gave z-score of -1.86

The recorded z-score for entry `NC(N)=NCCCn1cc(CNC(=O)[C@@H](N)Cc2ccccc2)nn1` equals -0.0334

Short answer for `CCC[C@@H]1C[C@@]1(CCC)[C@@H](NC(=O)OCc1ccccc1)c1ccc(-c2ccccc2)cc1` : z-score was -0.625

Item: `COCCCNC(=O)[C@@]1(Sc2ccc(C)cc2)CC(=O)N(C2CCCCC2)[C@@H]1c1ccc(CO)cc1` | z-score: -1.59

Lab note: OCCCC1=CC(c2ccc(CN3CCCC3)cc2)N(Cc2sc3ccccc3c2Cl)CC1 (stereo not given) gave z-score of -3.45

Item: `C=C(COC)/C(=C/C[C@H](OC(=O)c1ccncc1)c1ccccc1OCCO)c1cnc2ccccc2c1` | z-score: -2.28

// `O=C1O[C@H](c2ccccc2)[C@H](c2ccccc2)N2[C@H]1[C@@H](C(=O)Nc1nc3ccccc3s1)[C@]1(C(=O)Nc3ccc(C#CCCO)cc31)[C@H]2c1ccc(O)cc1` : z-score value = -2.26

# compound `O=C1C=C(c2ccccc2)C(=O)c2ccc([C@H]3Oc4ccccc4S(=O)(=O)N4CCC[C@@H]34)cc21` ; its z-score = -3.23

Record `COCCOC(=O)N1C(=O)[C@@]2(c3cc(C#CC4=CCCCC4)ccc31)[C@H](c1ccc(OCCO)cc1)N1[C@H](c3ccccc3)[C@H](c3ccccc3)OC(=O)[C@H]1[C@@H]2C(=O)NC[C@H](O)c1ccccc1` . Reported z-score: -1.54

Quick note, z-score for `COc1ccc(CCN2C(=O)[C@@]3(Cc4ccccc42)c2ccccc2C(=O)N(Cc2ccccc2OC)[C@H]3c2ccc(CO)cc2)cc1` landed at -1.98

z-score measured on `CCCCCCc1nc(C2CC2)cc2c1[Si](C(C)C)(C(C)C)OC2` = -2.26

Value of z-score reported for the compound O=C1OCC=C[C@H]2OC34C=CCN(Cc5ccccc5)C(=O)[C@H]3N(CCCCCCO)C(=O)[C@@H]4[C@@H]12 (stereo not given in full) is 1.62

What the record says about `CN(C)CCCCNC(=O)[C@@H]1C[C@@H]2C(=O)N[C@@H](Cc3ccccc3)C(=O)N2[C@@H]1c1cccc(OCCO)c1` : z-score is -0.729

Note to self: z-score recorded for COc1cc2c(cc1O)C(C)N(Cc1ccc([N+](=O)[O-])o1)CC2 (stereo not given) was -1.21

# z-score of `C=C(C)c1cc2c(c(CCCCCC)n1)[Si](C(C)C)(C(C)C)OC2` = 0.134
